Target: almond β-glucosidase
Test: glycosidase inhibition assay with p-nitrophenyl substrate, commercial (Sigma) enzyme
ENDPOINT: IC50

INPUT: May I ask what IC50 has been recorded for NC1=NC[C@@H](CCNC(=O)c2cc3c(cn2)[nH]c2ccccc23)N1 [compound 1, (+)-(R)-Tiruchanduramine] ?
OUTPUT: 1000 µM
